# assay remarks: Apparent permeability across apical to basolateral side of dog MDCK cells at 50 uM measured every 15 mins for 1.5 hrs by LC-MS/MS analysis
# Type: ADME, cell-based, Canis lupus familiaris
measured metric: Papp A→B at 1.5 h, 50 µM (×10⁻⁶ cm/s)
Entry rule: numbers only, all in ×10⁻⁶ cm/s.

Task: What value of Papp A→B at 1.5 h, 50 µM has been reported for the following molecule? COCCc1ccc(OCC(O)CNC(C)C)cc1 (stereo unspecified)
Output: 15.6
